SYSTEM_UNDER_TEST: glucocorticoid receptor (Homo sapiens (Human), UniProt P04150)
Sequence (P04150 whole entry): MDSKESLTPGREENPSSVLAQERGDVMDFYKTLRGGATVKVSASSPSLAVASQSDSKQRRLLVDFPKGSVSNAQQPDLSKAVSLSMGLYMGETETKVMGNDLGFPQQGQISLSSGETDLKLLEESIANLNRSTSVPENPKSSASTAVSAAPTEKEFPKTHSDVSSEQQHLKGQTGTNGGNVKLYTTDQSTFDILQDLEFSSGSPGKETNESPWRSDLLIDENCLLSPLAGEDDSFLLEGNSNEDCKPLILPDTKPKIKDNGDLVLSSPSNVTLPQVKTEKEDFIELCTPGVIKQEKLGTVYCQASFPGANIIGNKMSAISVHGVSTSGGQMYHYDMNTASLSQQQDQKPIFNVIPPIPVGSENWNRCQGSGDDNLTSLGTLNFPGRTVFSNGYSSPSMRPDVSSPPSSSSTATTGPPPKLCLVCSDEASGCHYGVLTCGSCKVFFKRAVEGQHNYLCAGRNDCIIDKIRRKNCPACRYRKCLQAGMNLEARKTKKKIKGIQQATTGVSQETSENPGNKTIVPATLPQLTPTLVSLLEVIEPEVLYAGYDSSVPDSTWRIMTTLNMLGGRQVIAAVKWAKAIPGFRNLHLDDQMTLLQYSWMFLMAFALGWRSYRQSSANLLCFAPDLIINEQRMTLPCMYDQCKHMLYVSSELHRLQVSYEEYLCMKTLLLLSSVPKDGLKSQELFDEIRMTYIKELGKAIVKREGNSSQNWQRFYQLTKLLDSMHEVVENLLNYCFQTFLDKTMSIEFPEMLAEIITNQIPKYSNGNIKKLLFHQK
PROCEDURE_DETAILS: HepG2 TAT assay: inhibition of dexamethasone-induced tyrosine aminotransferase (TAT) activity
TEST_SETTINGS: HepG2 cells, challenge of 100 nM dexamethasone, 18-24 hr; IC50 converted to Ki by Cheng and Prusoff equation
pKi: −log10 of the molar value.
Please note: MET applies when pKi is 7 or greater, and NOT MET applies otherwise.

>>> df
                                   molecule    label
0  Cc1cc2c(cnn2-c2ccc(F)cc2)cc1[C@]12CN(S(=O)(=O)c3cnn(C)n3)C[C@H]1[C@@H]2C(=O)Nc1ccccc1 [Example 62]      MET
1  COC1CCN(S(=O)(=O)N2C[C@@H]3[C@@H](c4ccccc4)[C@]3(c3cc4cnn(-c5ccc(F)cc5)c4cc3C)C2)CC1 [Example 109]      MET
2  Cc1cc2c(cnn2-c2ccc(F)cc2)cc1[C@]12CN(C(=O)c3ccccc3)C[C@H]1[C@H]2c1ccccn1 (stereo in doubt) [Example 186]  NOT MET
3  Cc1cc2c(cnn2-c2ccc(F)cc2)cc1[C@@]12CN(S(=O)(=O)c3cncs3)C[C@@H]1[C@H]2c1ccccc1 [Example 91]      MET

Entry CC#CC1(OC)CC2CN(S(=O)(=O)c3cnn(C)c3)CC2(c2cc3cnn(-c4ccc(F)cc4)c3cc2C)C1 (stereo not drawn) [Example 16] : is its pKi no less than 7?
NOT MET

###

SYSTEM_UNDER_TEST: glucocorticoid receptor (Homo sapiens (Human), UniProt P04150)
PROCEDURE_DETAILS: HepG2 TAT assay: inhibition of dexamethasone-induced tyrosine aminotransferase (TAT) activity
Type: cell-based
TEST_SETTINGS: HepG2 cells, challenge of 100 nM dexamethasone, 18-24 hr; IC50 converted to Ki by Cheng and Prusoff equation
READOUT: Ki (nM)
Answer with a number only, understood to be in nM.

Example compounds with recorded Ki:
In [3]: df
Out[3]:
                                   compound  readout  observed_result
0  CCCn1ncc(S(=O)(=O)N2C[C@H]3[C@H](c4ccccc4)[C@@]3(c3cc4cnn(-c5ccc(F)cc5)c4cc3C)C2)n1       Ki               25
1  Cc1cc2c(cnn2-c2ccc(F)cc2)cc1[C@@]12CN(S(=O)(=O)c3ccccc3)C[C@@H]1[C@H]2c1ccccc1       Ki               17
2  CCCn1cc(S(=O)(=O)N2C[C@@H]3C[C@](OC)(c4ccccc4)C[C@]3(c3cc4cnn(-c5ccc(F)cc5)c4cc3C)C2)cn1       Ki               32

Moving on to the next compound.
Data request, read-out Ki, for COc1ccnc(C(=O)N2C[C@@H]3[C@@H](c4ccccc4)[C@]3(c3cc4cnn(-c5ccc(F)cc5)c4cc3C)C2)c1 (stereo in doubt)
35

###

SYSTEM_UNDER_TEST: glucocorticoid receptor (Homo sapiens (Human))
PROCEDURE_DETAILS: HepG2 TAT assay: inhibition of dexamethasone-induced tyrosine aminotransferase (TAT) activity
TEST_SETTINGS: HepG2 cells, challenge of 100 nM dexamethasone, 18-24 hr; IC50 converted to Ki by Cheng and Prusoff equation
Measured log10 of Ki accompanies every entry in the list below.
Note the log scale: values are log10 of Ki expressed in nM.

Example compounds with recorded log10 of Ki:
>>> df
                                   compound      readout  observed_result
0  Cc1cc2c(cnn2-c2ccc(F)cc2)cc1[C@@]12CN(C(=O)c3ccncc3)C[C@@H]1[C@H]2c1ccccc1 (single isomer, unassigned) [Example 165]  log10 of Ki             1.92
1  Cc1cc2c(cnn2-c2ccc(F)cc2)cc1C12CN(S(=O)(=O)c3cnn(C)n3)CC1C2COc1ccc(Cl)cc1 (single isomer, unassigned) [Example 53]  log10 of Ki             2.04
2  Cc1cc2c(cnn2-c2ccc(F)cc2)cc1C12CN(S(C)(=O)=O)CC1CC(O)(c1ccccc1)C2 (centres unmarked) [Example 9]  log10 of Ki             2.11
3  CNC(=O)N1C[C@@H]2[C@@H](c3ccccc3)[C@]2(c2cc3cnn(-c4ccc(F)cc4)c3cc2C)C1 (single isomer, unassigned) [Example 124]  log10 of Ki             2.08
4  CO[C@@]1(c2ccccc2)C[C@H]2CN(S(=O)(=O)C3CC3)C[C@@]2(c2cc3cnn(-c4ccc(F)cc4)c3cc2C)C1 [Example 24]  log10 of Ki             1.51
5  CO[C@]1(c2ccccc2)C[C@@H]2CN(C(C)=O)C[C@]2(c2cc3cnn(-c4ccc(F)cc4)c3cc2C)C1 [Example 33]  log10 of Ki             2.34
6  Cc1cc2c(cnn2-c2ccc(F)cc2)cc1[C@]12CN(S(=O)(=O)c3cnn(C)n3)C[C@H]1[C@@H]2C(=O)Nc1ccc(F)cn1 (stereo in doubt) [Example 57]  log10 of Ki             2.28
7  CO[C@@]1(c2ccccc2)C[C@H]2CN(S(=O)(=O)c3cnn(C)n3)C[C@@]2(c2cc3cnn(-c4ccc(F)cc4)c3cc2C)C1 (stereo in doubt) [Example 19]  log10 of Ki             1.67

Moving on to the next compound.
Data request, read-out log10 of Ki, for Cc1cc2c(cnn2-c2ccc(F)cc2)cc1[C@]12CN(C(=O)c3cn(C)nn3)C[C@H]1[C@@H]2c1ccccc1 [Example 147]
1.57
